- test_target: 5-lipoxygenase (Rattus norvegicus, UniProt P12527)
- Construct: 20,000×g supernatant from 1.5 million homogenized RBL-1 cells; endogenous in cells
- Sequence (P12527 whole entry): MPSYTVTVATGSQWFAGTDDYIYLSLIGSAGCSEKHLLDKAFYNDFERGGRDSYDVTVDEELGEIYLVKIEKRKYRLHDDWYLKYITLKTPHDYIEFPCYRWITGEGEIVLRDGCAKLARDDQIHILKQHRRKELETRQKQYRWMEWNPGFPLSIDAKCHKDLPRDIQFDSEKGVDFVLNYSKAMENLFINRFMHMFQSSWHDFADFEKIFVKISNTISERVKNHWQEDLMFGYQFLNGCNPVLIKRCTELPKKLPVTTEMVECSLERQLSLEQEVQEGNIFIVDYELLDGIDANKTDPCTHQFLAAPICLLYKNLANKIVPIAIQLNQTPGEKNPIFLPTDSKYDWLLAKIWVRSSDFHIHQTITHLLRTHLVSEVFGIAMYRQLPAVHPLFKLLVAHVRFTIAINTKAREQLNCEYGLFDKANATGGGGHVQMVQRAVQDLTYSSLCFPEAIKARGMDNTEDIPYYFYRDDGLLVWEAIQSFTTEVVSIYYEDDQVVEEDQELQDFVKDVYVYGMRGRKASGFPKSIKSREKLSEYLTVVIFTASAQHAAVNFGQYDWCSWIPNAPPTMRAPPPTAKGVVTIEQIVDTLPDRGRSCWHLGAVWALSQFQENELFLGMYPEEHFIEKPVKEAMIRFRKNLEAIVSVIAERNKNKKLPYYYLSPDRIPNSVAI
- assay_procedure: In vitro inhibition of 5-lipoxygenase (20,000×g supernatant from homogenized RBL-1 cells, radiolabeled arachidonic acid)
- assay_context: 20,000×g supernatant of RBL-1 cells; triplicate; read-out: IC50 (in vitro inhibitory potency against 5-lipoxygenase)
pIC50: −log10 of the molar value.
readout_name: pIC50

Recorded results for 2 compounds are shown here.
compound: Cc1cccc([C@@H]2C[C@H]2CN(O)C(N)=O)n1 (relative stereo)
readout_name: pIC50
numeric_readout: 5.12
//
compound: NC(=O)N(O)C[C@@H]1C[C@H]1c1ccc(Oc2ccccc2)cc1 (relative stereo)
readout_name: pIC50
numeric_readout: 7.22

[A] CC([C@@H]1C[C@H]1CCc1ccccc1)N(O)C(N)=O (some centres unmarked)
[B] CC(Oc1ccc([C@@H]2C[C@H]2C(C)N(O)C(N)=O)cc1)c1ccccc1 (some centres unmarked)
Look at A and B . Which one has the lower recorded pIC50 number? Output the label that corresponds to your choice.
B
(B: 6.40, A: 7.00)

[I] CC(C)Cc1ccc([C@@H]2C[C@H]2CN(O)C(N)=O)cc1 (relative stereo)
[II] CNC(=O)N(O)C(C)[C@@H]1C[C@H]1c1cc2ccccc2s1 (some centres unmarked)
Determine, for I and II , which has the greater value of pIC50. Output the label that corresponds to your choice.
I

[P] CN(O)C(=O)[C@@H]1C[C@H]1c1cccc(Oc2ccccc2)c1 (relative stereo)
[Q] Cc1ccc([C@@H]2C[C@H]2C(C)N(O)C(N)=O)o1 (relative stereo)
[R] NC(=O)N(O)C[C@@H]1C[C@H]1c1ccc(OCc2ccccc2)cc1 (relative stereo)
Sort low-to-high on pIC50, please. // format: requested-order list of labels
Q, P, R
(Q: 5.96, P: 7.00, R: 7.30)

[I] CN(O)C(=O)[C@@H]1C[C@H]1c1ccccc1 (relative stereo)
[II] NC(=O)N(O)C[C@@H]1C[C@H]1c1cccc(Oc2ccc(F)cc2)c1 (relative stereo)
Determine, for I and II , which has the greater value of pIC50. Output the label that corresponds to your choice.
II

[I] CC([C@@H]1C[C@H]1c1ccc2ccccc2c1)N(O)C(N)=O (some centres unmarked)
[II] CC([C@@H]1C[C@H]1c1ccc(OCc2ccccc2)cc1)N(O)C(N)=O (some centres unmarked)
[III] NC(=O)N(O)C[C@@H]1C[C@H]1c1cccnc1 (relative stereo)
[IV] CC(=O)N(O)C[C@@H]1C[C@H]1c1ccc(Br)cc1 (relative stereo)
Reorder: pIC50, max to min. // format: requested-order list of labels
IV, II, I, III

[A] NC(=O)N(O)C[C@@H]1C[C@H]1c1cccc(Oc2ccccn2)c1 (relative stereo)
[B] CC([C@@H]1C[C@H]1c1cc2ccccc2s1)N(O)C(N)=O (single isomer, unassigned) [Example 1b]
Determine, for A and B , which has the greater value of pIC50. Output the label that corresponds to your choice.
B
(B: 6.70, A: 6.40)

[a] CC(C)Oc1ccc([C@@H]2C[C@H]2CN(O)C(N)=O)cc1 (relative stereo)
[b] NC(=O)N(O)C[C@@H]1C[C@H]1c1ccccc1Oc1ccccc1 (relative stereo)
[c] CC(Oc1ccc([C@H]2[C@H](CN(O)C(N)=O)C2(C)C)cc1)c1ccccc1 (some centres unmarked)
[d] CC(C1CC1c1ccccc1)N(O)C(N)=O (centres unmarked)
Reorder: pIC50, max to min. // format: requested-order list of labels
c, b, a, d

[1] CC(C)Oc1ccc([C@@H]2C[C@H]2CN(O)C(N)=O)cc1Br (relative stereo)
[2] CC([C@@H]1C[C@H]1c1ccc(Br)cc1)N(O)C(N)=O (some centres unmarked)
Look at 1 and 2 . Which one has the lower recorded pIC50 number? Output the label that corresponds to your choice.
1

---

- test_target: 5-lipoxygenase (Rattus norvegicus)
- Construct: 20,000×g supernatant from 1.5 million homogenized RBL-1 cells; endogenous in cells
- assay_procedure: In vitro inhibition of 5-lipoxygenase (20,000×g supernatant from homogenized RBL-1 cells, radiolabeled arachidonic acid)
- assay_context: 20,000×g supernatant of RBL-1 cells; triplicate; read-out: IC50 (in vitro inhibitory potency against 5-lipoxygenase)
readout_name: IC50 (nM)

Recorded results for 5 compounds are shown here.
compound: Cc1ccc(Oc2cccc([C@@H]3C[C@H]3CN(O)C(N)=O)c2)cc1 (relative stereo)
result_units: nM
IC50: 60
--
compound: NC(=O)N(O)C[C@@H]1C[C@H]1c1ccncc1 (relative stereo)
result_units: nM
IC50: 5700
--
compound: NC(=O)N(O)C[C@@H]1C[C@H]1c1ccccc1 (relative stereo)
result_units: nM
IC50: 1800
--
compound: Cc1cc([C@@H]2C[C@H]2CN(O)C(N)=O)ccc1Oc1ccccc1 (relative stereo)
result_units: nM
IC50: 200
--
compound: NC(=O)N(O)C[C@@H]1C[C@H]1c1cccc(Oc2ccncc2)c1 (relative stereo)
result_units: nM
IC50: 400

[a] COc1ccc([C@@H]2C[C@H]2C(C)N(O)C(C)=O)cc1 (some centres unmarked)
[b] CC(C)c1ccc([C@@H]2C[C@H]2CN(O)C(N)=O)cc1 (relative stereo)
[c] CC(=O)N(O)C(C)[C@@H]1C[C@H]1c1ccc(Br)cc1 (single isomer, unassigned)
Sort low-to-high on IC50, please. // format: requested-order list of labels
c, b, a

---

- test_target: 5-lipoxygenase (Rattus norvegicus)
- Construct: 20,000×g supernatant from 1.5 million homogenized RBL-1 cells; endogenous in cells
- assay_procedure: In vitro inhibition of 5-lipoxygenase (20,000×g supernatant from homogenized RBL-1 cells, radiolabeled arachidonic acid)
- assay_context: 20,000×g supernatant of RBL-1 cells; triplicate; read-out: IC50 (in vitro inhibitory potency against 5-lipoxygenase)
readout_name: IC50 (nM)

Recorded results for 3 compounds are shown here.
compound: CNC(=O)N(O)C(C)[C@@H]1C[C@H]1c1cccc(Oc2ccccc2)c1 (stereo partly drawn)
test_target: 5-lipoxygenase (Rattus norvegicus)
IC50 [nM]: 70

compound: CC(=O)N(O)C(C)[C@@H]1C[C@H]1c1cc2ccccc2s1 (stereo partly drawn)
test_target: 5-lipoxygenase (Rattus norvegicus)
IC50 [nM]: 100

compound: COc1ccc([C@@H]2C[C@H]2CN(O)C(N)=O)cc1 (relative stereo)
test_target: 5-lipoxygenase (Rattus norvegicus)
IC50 [nM]: 1500

[P] NC(=O)N(O)C[C@H]1C[C@H]1c1ccccc1 (relative stereo)
[Q] CC(C)Oc1cccc([C@@H]2C[C@H]2CN(O)C(N)=O)c1 (relative stereo)
Look at P and Q . Which one has the lower recorded IC50 number? Output the label that corresponds to your choice.
Q

[P] COc1ccc([C@@H]2C[C@H]2C(C)N(O)C(N)=O)cc1 (stereo partly drawn)
[Q] Cc1ccc([C@@H]2C[C@H]2CN(O)C(N)=O)cc1Oc1ccccc1 (relative stereo)
[R] CC([C@H]1[C@H](c2ccccc2)C1(C)C)N(O)C(N)=O (stereo partly drawn)
[S] CC([C@@H]1C[C@H]1c1cc2ccccc2s1)N(O)C(N)=O (single isomer, unassigned) [Example 1a]
[T] CC(C1CC1c1ccco1)N(O)C(N)=O (stereo not drawn)
Reorder: IC50, max to min. // format: requested-order list of labels
T, P, S, Q, R
(T: 3600 nM, P: 900 nM, S: 300 nM, Q: 200 nM, R: 100 nM)

[a] NC(=O)N(O)C[C@@H]1C[C@H]1c1cccc(Oc2ccc(OCc3ccccc3)cc2)c1 (relative stereo)
[b] CC(=O)N(O)C(C)[C@@H]1C[C@H]1c1ccc(C)cc1 (stereo partly drawn)
Look at a and b . Which one has the lower recorded IC50 number? Output the label that corresponds to your choice.
a

[1] CC(Oc1ccc([C@@H]2C[C@H]2CN(O)C(N)=O)cc1)c1ccccc1 (stereo partly drawn)
[2] Cc1ccc([C@@H]2C[C@H]2CN(O)C(N)=O)cc1 (relative stereo)
Look at 1 and 2 . Which one has the lower recorded IC50 number? Output the label that corresponds to your choice.
1

[A] COc1ccc2cc([C@@H]3C[C@H]3CN(O)C(N)=O)ccc2c1 (relative stereo)
[B] CC(=O)N(O)C[C@@H]1C[C@H]1c1ccccc1 (relative stereo)
Look at A and B . Which one has the lower recorded IC50 number? Output the label that corresponds to your choice.
A

[1] CC([C@@H]1C[C@H]1c1ccccc1)N(O)C(N)=O (stereo partly drawn)
[2] CC(=O)N(O)C[C@@H]1C[C@H]1c1ccc(C)cc1 (relative stereo)
Look at 1 and 2 . Which one has the lower recorded IC50 number? Output the label that corresponds to your choice.
2

---

- Tested on: leukotriene biosynthesis
- assay_procedure: Inhibition of leukotriene biosynthesis in vivo after oral administration, rat peritoneal anaphylaxis model
- assay_context: 200 μmol/kg oral (gavage), 1 h before antigen challenge, read-out: % Inhibition of Leukotrienes at 200 μmol/kg oral dose
Listed compounds paired with reported inhibition in vivo at 200 µmol/kg
Report the value in % with no unit label.

Check the records and state inhibition in vivo at 200 µmol/kg for CC(C1CC1c1ccccc1)N(O)C(N)=O (stereo not drawn)
61

Check the records and state inhibition in vivo at 200 µmol/kg for CC(=O)N(O)C[C@@H]1C[C@H]1c1ccccc1 (relative stereo)
99

Check the records and state inhibition in vivo at 200 µmol/kg for COc1ccc([C@@H]2C[C@H]2C(C)N(O)C(N)=O)cc1 (stereo partly drawn)
96

Check the records and state inhibition in vivo at 200 µmol/kg for NC(=O)N(O)C[C@@H]1C[C@H]1c1ccccc1 (relative stereo)
97

Check the records and state inhibition in vivo at 200 µmol/kg for NC(=O)N(O)CC[C@@H]1C[C@H]1c1ccccc1 (relative stereo)
100
